test: Apparent permeability across apical to basolateral side in dog MDCKII-MDR1 cells at 2 uM incubated for 2.5 hrs by LC-MS/MS analysis; format: ADME, cell-based, Canis lupus familiaris, MDCK-MDR1; conditions: mdck-mdr1, 2.5 h, 2 µM, 2.5 h
Recorded Papp for the following compounds
Answer format reminder: number followed by unit.

STRUCTURE NOTATION	Papp
Cn1ncc(-c2ccc3c(=O)[nH]nc(CN)c3c2)c1-c1c(F)c(Cl)cc(OC2CC2)c1C#N	0.3 ×10⁻⁶ cm/s

Consider the record given below.
Query: Need Papp, item `Cn1ncc(-c2ccc3c(=O)[nH]nc(CN)c3c2)c1-c1c(F)cc2ccccc2c1C#N`
Result: 0.3 ×10⁻⁶ cm/s
